- System: NCI-H1793
- test.details: relative viability (nuclei count vs DMSO), 5 days (fraction); higher = more cells survive
- conditions: first compound 0.04 µM
Give measured relative viability for each item. Keep answers brief.
Answers are plain numbers.

Prompt line: // query relative viability value for entry O=C(O)c1ccc(-c2c[nH]c3ncc(-c4ccccc4)cc23)cc1C1CCCC1 + CC(=O)c1c(C)c2cnc(Nc3ccc(N4CCNCC4)cn3)nc2n(C2CCCC2)c1=O [Palbociclib] (partner 0.5 µM)
Response line: 0.248

Prompt line: Could you do the same for O=C(O)c1ccc(-c2c[nH]c3ncc(-c4ccccc4)cc23)cc1C1CCCC1 + NC(=O)Nc1cc(-c2cccc(F)c2)sc1C(=O)N[C@H]1CCCNC1 [AZD7762] (partner 0.2 µM) , please?
Response line: 0.513

Turning now to a further record.
Prompt line: I have this compound here, O=C(O)c1ccc(-c2c[nH]c3ncc(-c4ccccc4)cc23)cc1C1CCCC1 + COc1cccc2cc(-c3nc([C@H]4CC[C@H](C(=O)O)CC4)n4ncnc(N)c34)[nH]c12 [OSI-027] (partner 0.5 µM) , and I need its recorded relative viability.
Response line: 0.312

###

Would you kindly list relative viability for each of these compounds?
- Tested on: NCI-H650
- test.details: relative viability (nuclei count vs DMSO), 5 days (fraction); higher = more cells survive
- conditions: first compound 0.253 µM
One number for each entry.

Known relative viability results, listed for orientation:
Prompt line: Look up relative viability for this compound: C=C1C(=O)O[C@@H](CCCCCCCC)[C@@H]1C(=O)O [C-75] + CC(C)C[C@H](NC(=O)[C@H](Cc1ccccc1)NC(=O)c1cnccn1)B(O)O [Bortezomib] (partner 0.002 µM)
Response line: 0.691

Prompt line: What about this compound? C=C1C(=O)O[C@@H](CCCCCCCC)[C@@H]1C(=O)O [C-75] + CC(=O)Nc1cccc(-n2c(=O)n(C3CC3)c(=O)c3c(Nc4ccc(I)cc4F)n(C)c(=O)c(C)c32)c1 [Trametinib] (partner 0.02 µM)
Response line: 0.961

Prompt line: Please answer likewise for C=C1C(=O)O[C@@H](CCCCCCCC)[C@@H]1C(=O)O [C-75] + CS(=O)(=O)N1CCN(Cc2cc3nc(-c4cccc5[nH]ncc45)nc(N4CCOCC4)c3s2)CC1 [Pictilisib] (partner 1 µM)
Response line: 0.825

Provide relative viability values for the following items, in order.
1. Oc1nc(-c2ccc(C(F)(F)F)cc2)nc2c1CSCC2 [XAV939] + CC(C)C[C@H](NC(=O)[C@H](Cc1ccccc1)NC(=O)c1cnccn1)B(O)O [Bortezomib] (partner 0.002 µM)
2. C=C1C(=O)O[C@@H](CCCCCCCC)[C@@H]1C(=O)O [C-75] + Cc1nc(Nc2ncc(C(=O)Nc3c(C)cccc3Cl)s2)cc(N2CCN(CCO)CC2)n1 [Dasatinib] (partner 0.075 µM)

Response line:
1. 0.882
2. 0.328

###

- System: A-427
- test.details: relative viability (nuclei count vs DMSO), 5 days (fraction); higher = more cells survive
- conditions: first compound 0.253 µM
Field: relative viability. Provide a value for each of the compounds that follow.
Numbers only.

Some solved entries appear below for comparison.
Prompt line: Request body: readout relative viability, system A-427, query Oc1nc(-c2ccc(C(F)(F)F)cc2)nc2c1CSCC2 [XAV939] + Cc1nc(Nc2ncc(C(=O)Nc3c(C)cccc3Cl)s2)cc(N2CCN(CCO)CC2)n1 [Dasatinib] (partner 0.075 µM) . Return the value.
Response line: 0.677

Prompt line: Would you mind doing C=C1C(=O)O[C@@H](CCCCCCCC)[C@@H]1C(=O)O [C-75] + CCNC(=O)c1noc(-c2cc(C(C)C)c(O)cc2O)c1-c1ccc(CN2CCOCC2)cc1 [Luminespib] (partner 0.01 µM) as well?
Response line: 0.788

Prompt line: What about C=C1C(=O)O[C@@H](CCCCCCCC)[C@@H]1C(=O)O [C-75] + NC(=O)Nc1cc(-c2cccc(F)c2)sc1C(=O)N[C@H]1CCCNC1 [AZD7762] (partner 0.2 µM) ?
Response line: 0.825

Prompt line: Then C=C1C(=O)O[C@@H](CCCCCCCC)[C@@H]1C(=O)O [C-75] + N=C(N)NC(=N)NCCc1ccccc1 [Phenformin] (partner 250 µM) ?
Response line: 0.342

***
Prompt line: What is its relative viability for A-427? Entry: C=C1C(=O)O[C@@H](CCCCCCCC)[C@@H]1C(=O)O [C-75] + Nc1ncn([C@H]2C[C@H](O)[C@@H](CO)O2)c(=O)n1 [Decitabine] (partner 2 µM)
Response line: 0.533
